Origin of the recorded values: the RNAGym collection of RNA variant scans (doi:10.1093/molbev/msab373)

B1: Azoarcus group I ribozyme (parent)
chain: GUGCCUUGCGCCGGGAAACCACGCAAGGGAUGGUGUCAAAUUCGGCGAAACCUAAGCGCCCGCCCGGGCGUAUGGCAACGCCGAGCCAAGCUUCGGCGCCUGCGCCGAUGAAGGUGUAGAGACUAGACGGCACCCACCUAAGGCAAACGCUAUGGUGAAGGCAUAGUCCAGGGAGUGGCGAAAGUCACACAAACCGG

variants of: B1; assay: reverse-splicing fitness (ratio to wild type); higher = more active; in vitro selection; Mg2+ level not given
Please assign a class to every record based on measured reverse-splicing fitness, with ranges 1 = under 0.008, 2 = from 0.008 up to 0.02, 3 = 0.02 and over

mutant name | group label
A111U A120U C150G | 3
A120C A145U C150A C169G | 1
C82G A111G A120U C150U C169A | 1
A120U A145C C150U C169A U176G | 1
C82A A111U A120C A145U C150A C169U U176C | 2
A111G A120C C169G U176C | 2
C82G A111U A120G A145U C150U U176A | 2
A111C A120C A145U C150A C169A U176A | 2
C82G A111C A120G A145C C150U C169U U176C | 2
A111U A120G A145C C150A C169U U176A | 3
C82A A111G A120G A145C C169A U176G | 1
C82U A120G A145C C169A U176C | 1
C82A A111U A120G A145C C150U C169U U176C | 2
C82G A111U A145U C150U C169G U176G | 1
C82A A111C U176G | 2
A111U A120C A145C C150G C169A U176G | 1
A111C A120U A145G C150G U176G | 1
C82A A120C A145C C169A | 2
A111C A120C A145U C150U | 3
C82U A120G A145G C150U C169G | 3
C82A A145C C169U U176C | 2
C82A A111U A120U A145G C150G C169U U176G | 1
C82G A111U A120U | 3
A111C A120U A145U C169A U176C | 1
C82U A111U A120U | 3
A111U A120G A145C C150G C169G U176A | 2
C82G A145C C150U C169G U176C | 2
C82A A111C A145G C150U C169U U176C | 2
A120C A145C C150U C169U U176A | 3
C82A A111C A120C A145G C150U C169U U176G | 1
C82A A111G A120C C150U C169U U176A | 2
C82G A111U A120G A145U C150A C169G U176C | 2
C82A A111G C169U | 2
C82U A111C A145G C150U U176C | 3
C82G A111C A145U | 3
C82U A120C A145G C169A U176C | 3
A111C A120C A145C C150G C169G U176G | 1
C82A A111U A120C A145U C150U U176G | 1
C82G A111C A120C A145G C150A C169U | 2
C82A A111U A145C C150G C169A U176C | 1
C82A A111G A120U A145U C150G C169U U176G | 1
C82U A111U A120G A145G C169G U176C | 3
A111U A120U A145C C150U C169U U176G | 1
C82U A111G A120G A145G C150A C169U U176G | 1
C82G A111G A145G C150A U176A | 3
C82U A111G A120G C150A C169G | 2
C82U A111C A120G A145C C150U C169G | 1
C82U A111C A120G A145C C150A C169U U176A | 2
C82A A111C A145C C150U U176C | 3
C82G A111C A120G A145U C150G C169G U176A | 1
C82U A111G A120G A145G C150A C169U U176A | 3
C82A A111U A120C A145U C150A C169A U176G | 2
C82U A111C A120C A145G C150U U176C | 2
C82G A111G A120C A145G C150A C169A U176C | 3
C82G A145U C150A C169U | 1
C82U A111U A120G A145U C169U U176G | 1
A111U A120G C150G C169U U176C | 2
A111U A120C A145G C150G C169G | 1
C82G A111G A120G C169A U176C | 3
A111C A120C A145U C150A C169A U176G | 1
C82U A111U A120G A145U C150U | 2
C82G A111C A120G A145U C150U U176A | 2
C82G A111C A120U A145U C150G C169G | 1
C82A A111U A120G A145U C150G C169U U176A | 2
A120G C169G | 3
C82A A111U A145C C150A C169A U176G | 2
A120C A145C C150G U176A | 3
C82G A111C A120G A145C C169A U176G | 1
C82U A111U A120G U176A | 2
A120U A145U C150U | 3
A111U A120G C169A U176C | 3
C82A A120C A145G C150U C169U U176C | 2
C82A A111G A120G A145C | 2
A111C A120G A145U C150A C169A U176G | 1
C82G A111U A120C A145C C169A U176C | 2
C82G A111U A120U A145C C150U C169U U176C | 1
A111G A120U A145C U176C | 3
C82A A120G A145C C150A U176A | 2
C82A A111G A145G C150A C169U U176A | 2
C82A A120G | 3
C82U A111G A145U C150G C169G U176G | 1
C82U A111G A120C A145C C150A C169U U176C | 2
A120U A145U C150A C169U | 3
A120G A145U C150U C169G | 3
C82G A145C C150U C169G | 1
A145G C150U U176C | 3
A145C C169U U176A | 3
A111U A120U A145C C150U U176C | 3
C82G A111C C150G C169G | 1
A111G A120C A145C C150U C169G U176G | 1
C82A A120C A145G C150A C169A U176A | 3
